Reported inhibition by item:
# ASSAYED_TARGET: Serine/threonine-protein kinase D1 (Homo sapiens)
# PROTOCOL_TEXT: inhibition potency against human PKD1 – biochemical, fluorescence polarization, dose response (AID 1408)
# EXPERIMENTAL_SETUP: inhibition, at 50 µM, stronger effect = higher value

Examples with answers:
COMPOUND: Cc1c(C#N)c(N)nc(Cl)c1C#N
ASSAYED_TARGET: Serine/threonine-protein kinase D1 (Homo sapiens)
MEASURED_PARAMETER: inhibition
MEASURED: 5.41%

COMPOUND: CCC(=O)Nc1c2c(nn1-c1ccccc1C)CSC2
ASSAYED_TARGET: Serine/threonine-protein kinase D1 (Homo sapiens)
MEASURED_PARAMETER: inhibition
MEASURED: -1.23%

COMPOUND: CC1Cc2ccccc2N1c1ncnc(N)c1[N+](=O)[O-] (configuration not stated)
ASSAYED_TARGET: Serine/threonine-protein kinase D1 (Homo sapiens)
MEASURED_PARAMETER: inhibition
MEASURED: 76.8%

The value of inhibition measured for the compound `CSc1ccccc1C(=O)NCc1ccc(F)cc1` turned out to be 1.94%

// field: inhibition; key: COC(=O)c1c(NC(=O)C2C3CCC(C3)C2C(=O)O)sc2c1CCCCC2 (configuration not stated) ; value = 7.89%

According to the records, this compound `O=C(CSc1ccc2nnc(-c3cccnc3)n2n1)c1ccccc1` displays inhibition of -0.442%

# inhibition (compound: `CS(=O)(=O)N1CCN(c2ccccc2NC(=O)c2ccc(Br)o2)CC1` ) is 15.2%

So, `CC(=O)Oc1cc(OC(C)=O)c2c(C)cc(=O)oc2c1` ? Its inhibition was 29%

The reported value for `O=C(O)c1cc(C(=O)C2CCCCC2)c[nH]1` in terms of inhibition is 3.08%

Value of inhibition reported for the compound NC(=O)c1cn(C2OC(CO)C(O)C2O)c2ncnc(N)c12 (configuration not stated) is 102%

Per the record, `Clc1cncc(Cl)c1N/N=C/c1ccncc1` has inhibition of 83.8%

`O=C(Nc1ccc(CN2CCOCC2)cc1)c1ccc(-c2cccc(Cl)c2)o1` has a reported inhibition of 96.2%

Entry `Nc1nc2ccc([N+](=O)[O-])c(N)c2s1` ; inhibition = 95.9%

Lab note: measured inhibition of `NC(N)=NC(=O)c1nc(Cl)c(N)nc1N` was 96.6%

The recorded inhibition for entry `O=C1NCCCc2c1oc1ccc(O)cc21` equals 101%

Memo: `CCCc1cc(=O)[nH]c(SCCCCN2C(=O)c3ccccc3C2=O)n1` , reported inhibition: 0.534%

Entry under test: O=C(Nc1ccccc1C(=O)N1CCCC1)C1COc2ccccc2O1 (configuration not stated) . Its inhibition was 1.87%

* * *

# ASSAYED_TARGET: Serine/threonine-protein kinase D1 (Homo sapiens) (UniProt Q15139)
# Sequence (Q15139 whole entry, looked up): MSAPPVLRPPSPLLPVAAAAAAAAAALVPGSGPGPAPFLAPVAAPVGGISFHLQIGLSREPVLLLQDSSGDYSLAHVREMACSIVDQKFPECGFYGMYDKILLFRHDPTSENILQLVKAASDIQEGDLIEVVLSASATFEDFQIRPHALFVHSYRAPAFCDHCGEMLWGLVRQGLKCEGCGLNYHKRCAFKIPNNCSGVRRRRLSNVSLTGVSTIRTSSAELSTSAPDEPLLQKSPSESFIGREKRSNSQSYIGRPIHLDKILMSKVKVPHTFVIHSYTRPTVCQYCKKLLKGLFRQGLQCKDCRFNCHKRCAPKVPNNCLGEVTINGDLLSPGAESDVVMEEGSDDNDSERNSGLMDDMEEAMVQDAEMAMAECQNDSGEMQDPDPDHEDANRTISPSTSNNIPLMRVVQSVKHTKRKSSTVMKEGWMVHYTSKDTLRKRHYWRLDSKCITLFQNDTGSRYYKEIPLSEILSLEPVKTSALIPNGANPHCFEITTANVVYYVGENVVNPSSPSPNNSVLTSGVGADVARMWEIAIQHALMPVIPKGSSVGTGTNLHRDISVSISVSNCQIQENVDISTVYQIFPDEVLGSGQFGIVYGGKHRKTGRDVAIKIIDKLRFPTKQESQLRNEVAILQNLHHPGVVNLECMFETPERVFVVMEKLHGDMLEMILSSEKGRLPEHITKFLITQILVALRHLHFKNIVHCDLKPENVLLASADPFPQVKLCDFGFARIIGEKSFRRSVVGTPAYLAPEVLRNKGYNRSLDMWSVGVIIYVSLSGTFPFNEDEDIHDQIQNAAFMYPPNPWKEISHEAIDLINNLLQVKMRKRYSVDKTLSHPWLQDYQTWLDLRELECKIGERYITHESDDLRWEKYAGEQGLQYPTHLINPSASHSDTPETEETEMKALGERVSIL
# PROTOCOL_TEXT: inhibition potency against human PKD1 – biochemical, fluorescence polarization, dose response (AID 1408)
MEASURED_PARAMETER: pIC50
Interpret pIC50 as the negative base-10 log of the concentration measured in mol/L.

RECORD_SMILES: Clc1cncc(Cl)c1N/N=C/c1ccncc1
MEASURED_PARAMETER: pIC50
MEASURED: 5.02

Data point: `C/C(=N\Nc1ncc(Cl)cc1Cl)c1ccccn1` ; pIC50 = 5.03

* * *

Listed here are molecules together with their documented inhibition.
# ASSAYED_TARGET: Serine/threonine-protein kinase D1 (Homo sapiens) (UniProt Q15139)
# PROTOCOL_TEXT: inhibition potency against human PKD1 – biochemical, fluorescence polarization, dose response (AID 1408)
# EXPERIMENTAL_SETUP: inhibition, at 50 µM, stronger effect = higher value
Hi! Could you send only the number? It should be in %, unit omitted.

MOLECULE: COc1ccc(Cn2c(=O)[nH]c3cc(C(=O)NC4CCCC4)ccc3c2=O)cc1
UNIT_STRING: %
inhibition: 14.8

Entry `O=[N+]([O-])c1ccc(Nc2c3ccccc3nc3ccccc23)cc1` — recorded inhibition = -1.2

The molecule identified as `C/C(=N\Nc1ncc(Cl)cc1Cl)c1ccccn1` registered its inhibition at 65.6

Entry COc1ccc(CNC(=O)C2Cc3ccccc3CN2C(=O)c2ccco2)cc1 (configuration not stated) — recorded inhibition = 9.09

Entry `CCC1=NNc2cccc3c(OC)ccc1c23` ; inhibition = 67

Memo: Cc1cc(NC(=O)CCC(=O)N(Cc2ccco2)C(C(=O)NCC2CCCO2)c2ccncc2)no1 (configuration not stated) , reported inhibition: -0.875

// recorded inhibition for `O=C(CSc1ccncc1)Nc1ccc2ccccc2c1` : -4.61

Reported inhibition for `Cn1cccc1C(=O)NC(=O)COC(=O)c1cc(S(=O)(=O)N2CCCCC2)ccc1Cl` was -3.91

The measured inhibition associated with `O=C(NNC1=Nc2cccc3cccc1c23)c1ccc(Br)cc1` reads -3.67

What the record says about `CCOC(=O)c1sc(=NC(=O)CCS(=O)(=O)c2ccccc2)n(C)c1C` : inhibition is -2.41

// field: inhibition; key: `Cc1cc(NCCCN)nc(-c2ccccc2O)n1` ; value = 94.4

For this molecule ( `O=C1CSCN1c1cc(Cl)ccc1Cl` ), measured inhibition is 1.32
